Reported t½ Ratio (pH 7.4/pH 6.0) values are given for each entry in this list.
Target: T1, cynomolgus monkey IL-33 expressed with a C-terminal hexahistidine tag (cynomolgus monkey)
T1 construct: also called MfIL-33-6His; Mf-IL-33-6His
T1 chain: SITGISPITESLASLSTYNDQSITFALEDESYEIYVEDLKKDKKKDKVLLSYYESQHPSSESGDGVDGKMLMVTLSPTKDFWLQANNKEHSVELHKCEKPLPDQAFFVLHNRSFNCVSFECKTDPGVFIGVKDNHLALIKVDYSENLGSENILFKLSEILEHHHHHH
Experiment: SPR 37C, pH6.0 chase, mAb captured
// no unit string in output, number only

Task: Let me know recorded t½ Ratio (pH 7.4/pH 6.0) for H4H9663P (antibody, human IgG4, V domains shown, Human IgG4 Fc (H4H)) VH: QVQLVQSGAEVKKPGASVKVSCKASGYTFTGHYMYWMRQAPGQGLEWMGWINPNSGGTNYAQKFQDRVTMTRDTSISTAYMELSRLRSDDTAVYYCARGRYGSSWYGGFEYWGQGTLVTVSS VL: DIQMTQSPSSVSASVGDRVTITCRASQGITSWLAWYQQKPGKAPNLLIYAAASLQSGVPSRFSGSGSGTDFTLTISSLQPEDFTTYYCQQAYSLPLTFGGGTKVEIK , thanks.
Result: 1

Task: Query t½ Ratio (pH 7.4/pH 6.0) for H4H9659P (antibody, human IgG4, V domains shown, Human IgG4 Fc (H4H)) VH: QVQLVQSGAEVKKPGASVKVSCKASGYTFNSYGISWVRQAPGQGLEWMGWISSHNGNSHYVQKFQGRVSMTTDTSTSTAYMELRSLRSDDTAVYYCARHSYTTSWYGGFDYWGQGTLVTVSS VL: DIQMTQSPSSVSASVGDRVTITCRASQGFSSWLAWYQQKPGKAPQLLIYAASSLQSGVPSRFSGSGSGSDFTLTISSLQPEDFATYYCQQANSFPLTFGGGTKVEIK
Result: 0.5

Task: Look up and state reported t½ Ratio (pH 7.4/pH 6.0) for H4H9662P (antibody, V domains shown, Human IgG4 Fc (H4H)) VH: EVQLVESGGGLVQPGGSLRLSCAASGFTFSSYALTWVRQAPGKGLEWVSFISGSGGRPFYADSVKGRFTISRDNSKNMLYLQMNSLRAEDTAIYYCAKSLYTTSWYGGFDSWGQGTLVTVSS VL: DIQMTQSPSSVSASVGDRVTITCRASQGVVSWLAWYQQKPGKAPKLLIYAASSLQSGVPSRFSGSGSGTDFTLTISSLQPEDFATYYCQQSNSFPFTLGPGTKVDIK
Result: 1.1
